assay explanation: Stability in Human Liver Microsomes
Format: in vitro ADME
conditions used: both sexes; pooled human liver microsomes 0.5 mg/mL protein, 1 mM NADPH, 37° C., N=1
result type: half-life

Prompt: I have this molecule here, C#Cc1cccc(Nc2ncnc3cc(OC)c(OCCCCCCC(=O)NO)cc23)c1 [CUDC-101, reference compound] , and I need its recorded half-life.
Completion: 20 min

Prompt: I have this molecule here, `[2H]C([2H])([2H])Oc1cc2ncnc(Nc3cccc(C#C)c3)c2cc1OCCCCCCC(=O)NO` , and I need its recorded half-life.
Completion: 28 min

Prompt: I have this molecule here, CN(C)C/C=C/C(=O)Nc1cc2c(Nc3ccc(F)c(Cl)c3)ncnc2cc1O[C@H]1CCOC1 [TOVOK, reference compound] , and I need its recorded half-life.
Completion: > 60 min

====

assay explanation: Stability in Human Liver Microsomes
Type: in vitro ADME
conditions used: pooled human liver microsomes 0.5 mg/mL protein, 1 mM NADPH, 37° C., 10 min, N=1
Give measured Percentage remaining 10 min for each item. Keep answers brief.
I only need the number, in %, no unit after it.

Prompt: I have this compound here, [2H]C([2H])([2H])N(C/C=C/C(=O)Nc1cc2c(Nc3cccc(C#C)c3)ncnc2cc1O[C@H]1CCOC1)C([2H])([2H])[2H] [Example 2] , and I need its recorded Percentage remaining 10 min.
Completion: 95

Prompt: I have this compound here, [2H]C1(Oc2cc3ncnc(Nc4cccc(C#C)c4)c3cc2NC(=O)/C=C/CN(C)C)CCOC1 (stereo not shown) [Example 4] , and I need its recorded Percentage remaining 10 min.
Completion: 94

Prompt: I have this compound here, [2H]C([2H])([2H])N(C/C=C/C(=O)Nc1cc2c(Nc3ccc(F)c(Cl)c3)ncnc2cc1O[C@H]1CCOC1)C([2H])([2H])[2H] [Example 1] , and I need its recorded Percentage remaining 10 min.
Completion: 97

Prompt: I have this compound here, [2H]C([2H])([2H])Oc1cc2ncnc(Nc3cccc(C#C)c3)c2cc1OCCCCCCC(=O)NO [Example 5] , and I need its recorded Percentage remaining 10 min.
Completion: 85

Prompt: I have this compound here, CN(C)C/C=C/C(=O)Nc1cc2c(Nc3ccc(F)c(Cl)c3)ncnc2cc1O[C@H]1CCOC1 [TOVOK, reference compound] , and I need its recorded Percentage remaining 10 min.
Completion: 95

Prompt: I have this compound here, C#Cc1cccc(Nc2ncnc3cc(OC)c(OCCCCCCC(=O)NO)cc23)c1 [CUDC-101, reference compound] , and I need its recorded Percentage remaining 10 min.
Completion: 74

Prompt: I have this compound here, [2H]C1(Oc2cc3ncnc(Nc4ccc(F)c(Cl)c4)c3cc2NC(=O)/C=C/CN(C)C)CCOC1 (stereo not shown) [Example 3] , and I need its recorded Percentage remaining 10 min.
Completion: 97
